# assay system: ABL1(Q252H)-nonphosphorylated (Homo sapiens, UniProt P00519, Q252H)
# Construct: purchased Eurofins DiscoverX KINOMEscan (scanTK)
# assay overview: KINOMEscan ScanTK
# Assay type: binding
# condition label: @1000nM, read-out: %Control
Response field label takes fulfilled when remaining binding at 1 µM is strictly below 40% and not fulfilled in all other cases.

Completed entries (count: 4):
INSERT INTO assay_data (molecule, classification) VALUES
  ('C=CC(=O)N1CCC[C@@H](n2nc(-c3ccc(Oc4ccccc4)cc3)c3c(N)ncnc32)C1 [Compound 1g, Ibrutinib, reference compound]', 'fulfilled'),
  ('Cc1cnc(S(C)(=O)=O)nc1N1CCCC(n2nc(-c3ccc(Oc4ccccc4)cc3)c3c(N)ncnc32)C1 (centres unmarked) [Compound 8a]', 'fulfilled'),
  ('COC(=O)c1cnc(S(C)(=O)=O)nc1N1CCCC(n2nc(-c3ccc(Oc4ccccc4)cc3)c3c(N)ncnc32)C1 (centres unmarked) [Compound 8b]', 'not fulfilled'),
  ('CNC(=O)c1cnc(S(C)(=O)=O)nc1N1CCCC(n2nc(-c3ccc(Oc4ccccc4)cc3)c3c(N)ncnc32)C1 (centres unmarked) [Compound 8d]', 'fulfilled');

Please determine if CCOC(=O)c1cnc(S(C)(=O)=O)nc1N1CCC[C@@H](n2nc(-c3ccc(Oc4ccccc4)cc3)c3c(N)ncnc32)C1 [Compound 8c] is below 40% in terms of remaining binding at 1 µM.
fulfilled

----------
Recorded remaining binding at 1 µM by entry
# assay system: EGFR(L861Q) (Homo sapiens, UniProt P00533, L861Q)
# Construct: purchased Eurofins DiscoverX KINOMEscan (scanTK)
# Sequence (P00533 25-1210 L861Q): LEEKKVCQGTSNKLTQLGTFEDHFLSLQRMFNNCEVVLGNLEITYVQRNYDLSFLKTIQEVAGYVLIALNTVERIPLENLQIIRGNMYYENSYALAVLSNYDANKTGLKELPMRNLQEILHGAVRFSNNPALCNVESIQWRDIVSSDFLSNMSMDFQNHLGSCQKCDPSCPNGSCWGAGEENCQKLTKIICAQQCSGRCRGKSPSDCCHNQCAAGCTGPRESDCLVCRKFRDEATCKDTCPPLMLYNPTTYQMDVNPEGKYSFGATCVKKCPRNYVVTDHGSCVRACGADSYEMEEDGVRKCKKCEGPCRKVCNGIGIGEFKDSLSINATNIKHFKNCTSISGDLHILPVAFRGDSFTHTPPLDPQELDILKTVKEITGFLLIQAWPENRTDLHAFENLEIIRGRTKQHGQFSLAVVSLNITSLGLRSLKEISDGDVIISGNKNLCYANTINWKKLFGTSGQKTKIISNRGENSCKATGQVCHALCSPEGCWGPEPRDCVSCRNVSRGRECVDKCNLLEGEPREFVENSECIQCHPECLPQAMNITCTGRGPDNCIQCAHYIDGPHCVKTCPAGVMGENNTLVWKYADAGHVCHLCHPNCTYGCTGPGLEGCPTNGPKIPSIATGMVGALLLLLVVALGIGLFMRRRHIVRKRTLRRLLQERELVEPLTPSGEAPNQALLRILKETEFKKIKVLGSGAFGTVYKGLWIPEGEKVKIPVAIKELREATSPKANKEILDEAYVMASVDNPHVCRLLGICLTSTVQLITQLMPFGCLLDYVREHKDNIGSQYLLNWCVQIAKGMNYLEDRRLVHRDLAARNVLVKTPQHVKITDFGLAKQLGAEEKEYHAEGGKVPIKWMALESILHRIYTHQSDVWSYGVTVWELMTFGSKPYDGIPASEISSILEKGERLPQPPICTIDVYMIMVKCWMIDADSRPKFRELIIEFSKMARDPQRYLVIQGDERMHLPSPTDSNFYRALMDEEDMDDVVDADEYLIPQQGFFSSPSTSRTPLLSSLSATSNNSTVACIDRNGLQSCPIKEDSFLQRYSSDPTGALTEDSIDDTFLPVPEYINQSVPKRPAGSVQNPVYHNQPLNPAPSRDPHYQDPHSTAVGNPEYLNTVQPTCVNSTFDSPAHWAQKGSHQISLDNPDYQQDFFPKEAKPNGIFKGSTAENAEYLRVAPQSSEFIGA
# assay overview: KINOMEscan ScanTK
# Assay type: binding
# condition label: @1000nM, read-out: %Control
Output spec: scalar in %, unitless text.

INSERT INTO results (molecule, measure_unit, reported) VALUES
  ('Cc1cnc(S(C)(=O)=O)nc1N1CCCC(n2nc(-c3ccc(Oc4ccccc4)cc3)c3c(N)ncnc32)C1 (stereo not shown)', '%', 82),
  ('COC(=O)c1cnc(S(C)(=O)=O)nc1N1CCCC(n2nc(-c3ccc(Oc4ccccc4)cc3)c3c(N)ncnc32)C1 (stereo not shown)', '%', 57),
  ('CCOC(=O)c1cnc(S(C)(=O)=O)nc1N1CCC[C@@H](n2nc(-c3ccc(Oc4ccccc4)cc3)c3c(N)ncnc32)C1', '%', 82);

Switching to the query record.
Fill in: remaining binding at 1 µM of CNC(=O)c1cnc(S(C)(=O)=O)nc1N1CCCC(n2nc(-c3ccc(Oc4ccccc4)cc3)c3c(N)ncnc32)C1 (stereo not shown) is ___
29

----------
Recorded remaining binding at 1 µM by entry
# assay system: TYRO3 (Homo sapiens, UniProt Q06418)
# Construct: purchased Eurofins DiscoverX KINOMEscan (scanTK)
# Sequence (Q06418 41-890): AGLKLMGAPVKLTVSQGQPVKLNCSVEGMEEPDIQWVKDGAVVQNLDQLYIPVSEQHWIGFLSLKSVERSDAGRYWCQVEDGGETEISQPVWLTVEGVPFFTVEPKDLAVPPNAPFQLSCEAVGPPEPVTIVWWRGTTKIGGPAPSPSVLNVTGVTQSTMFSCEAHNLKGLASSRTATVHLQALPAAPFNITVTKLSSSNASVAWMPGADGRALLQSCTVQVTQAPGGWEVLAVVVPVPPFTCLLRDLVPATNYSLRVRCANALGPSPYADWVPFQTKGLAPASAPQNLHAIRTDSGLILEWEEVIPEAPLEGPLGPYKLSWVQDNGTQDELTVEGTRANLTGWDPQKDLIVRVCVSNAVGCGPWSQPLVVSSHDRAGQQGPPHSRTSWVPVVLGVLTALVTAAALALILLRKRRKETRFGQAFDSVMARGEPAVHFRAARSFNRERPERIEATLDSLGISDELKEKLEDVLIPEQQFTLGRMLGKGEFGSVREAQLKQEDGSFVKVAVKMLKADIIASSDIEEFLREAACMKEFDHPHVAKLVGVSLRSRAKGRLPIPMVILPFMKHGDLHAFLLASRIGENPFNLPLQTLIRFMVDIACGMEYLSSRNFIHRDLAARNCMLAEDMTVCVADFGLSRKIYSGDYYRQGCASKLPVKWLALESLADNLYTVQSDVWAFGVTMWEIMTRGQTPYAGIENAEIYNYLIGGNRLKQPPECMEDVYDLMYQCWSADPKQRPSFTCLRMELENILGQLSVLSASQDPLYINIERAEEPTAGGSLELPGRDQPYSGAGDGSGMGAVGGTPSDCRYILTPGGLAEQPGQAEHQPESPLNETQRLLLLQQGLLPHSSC
# assay overview: KINOMEscan ScanTK
# Assay type: binding
# condition label: @1000nM, read-out: %Control
Output spec: scalar in %, unitless text.

Worked set:
INSERT INTO measurements (molecule, measure_unit, reported) VALUES
  ('Cc1cnc(S(C)(=O)=O)nc1N1CCCC(n2nc(-c3ccc(Oc4ccccc4)cc3)c3c(N)ncnc32)C1 (centres unmarked)', '%', 40),
  ('CNC(=O)c1cnc(S(C)(=O)=O)nc1N1CCCC(n2nc(-c3ccc(Oc4ccccc4)cc3)c3c(N)ncnc32)C1 (centres unmarked)', '%', 32);

Fill in: remaining binding at 1 µM of CCOC(=O)c1cnc(S(C)(=O)=O)nc1N1CCC[C@@H](n2nc(-c3ccc(Oc4ccccc4)cc3)c3c(N)ncnc32)C1 is ___
40

Fill in: remaining binding at 1 µM of COC(=O)c1cnc(S(C)(=O)=O)nc1N1CCCC(n2nc(-c3ccc(Oc4ccccc4)cc3)c3c(N)ncnc32)C1 (centres unmarked) is ___
33

Fill in: remaining binding at 1 µM of C=CC(=O)N1CCC[C@@H](n2nc(-c3ccc(Oc4ccccc4)cc3)c3c(N)ncnc32)C1 [Compound 1g, Ibrutinib, reference compound] is ___
34

Cited source for all entries: paper PMC11345841
